Read-out: solute carrier (SLC22A1), SLC22A1 (gene 6580)
test.description: LTEA_HepaRG_SLC22A1: Life Technologies and Expression Analysis (LTEA) Assay for solute carrier (SLC22A1) using HepaRG (AID 2283524)
test.context: mRNA level, 48 h; actives raise or lower the signal
Activity calls are given as the source filed them. Rule for the calls: active = hit-call score of the fitted dose curve at least 0.9, where 1 is the maximum; inactive = score below 0.9.
Hello, when you answer, please use one of the following outcomes: active, inactive

Below are worked cases with known answers.
CCCCSP(=O)(SCCCC)SCCCC; active
CCCCOC(=O)[C@@H](C)Oc1ccc(Oc2ccc(C#N)cc2F)cc1; inactive
CCCSP(=O)(OCC)SCCC; active
Cc1cc(C2CC2)nc(Nc2ccccc2)n1; active
CCOP(=S)(OCC)OC(Cl)C(Cl)(Cl)Cl (configuration not stated); inactive

Q) Could you please tell me the result logged for CSc1nnc(C(C)(C)C)c(=O)n1N in this assay?
A) inactive

Q) Could you please tell me the result logged for CC[C@H](C)[C@H]1O[C@]2(C=C[C@@H]1C)C[C@@H]1C[C@@H](C/C=C(\C)[C@@H](O[C@H]3C[C@H](OC)[C@@H](O[C@H]4C[C@H](OC)[C@@H](NC)[C@H](C)O4)[C@H](C)O3)[C@@H](C)/C=C/C=C3\CO[C@@H]4[C@H](O)C(C)=C[C@@H](C(=O)O1)[C@]34O)O2 in this assay?
A) active

Q) Could you please tell me the result logged for CCOP(=S)(OCC)SCCSCC in this assay?
A) inactive

Q) Could you please tell me the result logged for CN(C)[C@@H]1C(=O)C(C(N)=O)=C(O)[C@@]2(O)C(=O)C3=C(O)c4c(O)cccc4[C@@](C)(O)[C@H]3[C@H](O)[C@@H]12 in this assay?
A) inactive

Q) Could you please tell me the result logged for O=c1ccc(=O)[nH][nH]1 in this assay?
A) inactive

Q) Could you please tell me the result logged for CC1=NNC(=O)N(/N=C/c2cccnc2)C1 in this assay?
A) inactive

Q) Could you please tell me the result logged for Nc1nc(N)nc(NC2CC2)n1 in this assay?
A) inactive

###

Read-out: Collagen III, COL3A1 (gene 1281)
test.description: BSK_hDFCGF_CollagenIII: BioMAP Diversity Plus: hDFCGF Assay for Collagen III Biomarker Activity (AID 2283056)
test.context: primary human foreskin fibroblasts; actives raise or lower the signal
Calls of active or inactive are those of the source. Rule for the calls: active = hit-call score of the fitted dose curve at least 0.9, where 1 is the maximum; inactive = score below 0.9.
Hello, when you answer, please use one of the following outcomes: 1.0 for active, 0.0 for inactive

Below are worked cases with known answers.
CCc1cnc(C2=NC(C)(C(C)C)C(=O)N2)c(C(=O)O)c1 (stereo not drawn); 0.0
CC(C)[C@H](C(=O)O[C@H](C#N)c1cccc(Oc2ccccc2)c1)c1ccc(Cl)cc1; 0.0
CCCOc1nn(C(=O)NS(=O)(=O)c2ccccc2C(=O)OC)c(=O)n1C; 0.0

Q) Could you please tell me the result logged for Cc1cc(C2CC2)nc(Nc2ccccc2)n1 in this assay?
A) 0.0

Q) Could you please tell me the result logged for CCCOCC(=Nc1ccc(Cl)cc1C(F)(F)F)n1ccnc1 in this assay?
A) 1.0

Q) Could you please tell me the result logged for S=C1NCCN1 in this assay?
A) 0.0

Q) Could you please tell me the result logged for CCCSP(=O)(OCC)SCCC in this assay?
A) 0.0

Q) Could you please tell me the result logged for COc1cccc(C(=O)NN(C(=O)c2cc(C)cc(C)c2)C(C)(C)C)c1C in this assay?
A) 0.0

Q) Could you please tell me the result logged for O=C(O)c1cc(Oc2ccc(C(F)(F)F)cc2Cl)ccc1[N+](=O)[O-] in this assay?
A) 0.0

Q) Could you please tell me the result logged for CN1COCN(Cc2cnc(Cl)s2)C1=N[N+](=O)[O-] in this assay?
A) 0.0

Q) Could you please tell me the result logged for C#CC(C)(C)NC(=O)c1cc(Cl)cc(Cl)c1 in this assay?
A) 1.0

Q) Could you please tell me the result logged for CNc1cnn(-c2cccc(C(F)(F)F)c2)c(=O)c1Cl in this assay?
A) 0.0

Q) Could you please tell me the result logged for CCC(CC)Nc1c([N+](=O)[O-])cc(C)c(C)c1[N+](=O)[O-] in this assay?
A) 0.0

Q) Could you please tell me the result logged for CCC(=O)Nc1ccc(Cl)c(Cl)c1 in this assay?
A) 0.0

Q) Could you please tell me the result logged for CNC(=O)Oc1cccc2c1OC(C)(C)O2 in this assay?
A) 0.0

Q) Could you please tell me the result logged for Cc1ccn2nc(S(=O)(=O)Nc3c(F)cccc3F)nc2n1 in this assay?
A) 0.0

Q) Could you please tell me the result logged for CC[C@H](C)[C@H]1O[C@]2(C=C[C@@H]1C)C[C@@H]1C[C@@H](C/C=C(\C)[C@@H](O[C@H]3C[C@H](OC)[C@@H](O[C@H]4C[C@H](OC)[C@@H](NC)[C@H](C)O4)[C@H](C)O3)[C@@H](C)/C=C/C=C3\CO[C@@H]4[C@H](O)C(C)=C[C@@H](C(=O)O1)[C@]34O)O2 in this assay?
A) 1.0

Q) Could you please tell me the result logged for CC1=NNC(=O)N(/N=C/c2cccnc2)C1 in this assay?
A) 0.0

Q) Could you please tell me the result logged for CCOP(=S)(OCC)OC(Cl)C(Cl)(Cl)Cl (stereo not drawn) in this assay?
A) 1.0

Q) Could you please tell me the result logged for CCc1cccc(C)c1N(C(=O)CCl)C(C)COC (stereo not drawn) in this assay?
A) 0.0

Q) Could you please tell me the result logged for CCOP(=O)(NC(C)C)Oc1ccc(SC)c(C)c1 (stereo not drawn) in this assay?
A) 0.0

Q) Could you please tell me the result logged for Nc1c(Cl)cc([N+](=O)[O-])cc1Cl in this assay?
A) 0.0

Q) Could you please tell me the result logged for CCOP(=S)(Oc1cnc(C(C)(C)C)nc1)OC(C)C (stereo not drawn) in this assay?
A) 1.0
